molecular target: Solute carrier organic anion transporter family member 1B3 (Homo sapiens); settings: chinese hamster, cho, 10 µM
quantityName: residual activity (%)
Give bare numbers, in %.

- O=C(O)c1cc(O)c2c(c1)[C@H]([C@H]1c3cc(C(=O)O)cc(O)c3C(=O)c3c(O[C@@H]4O[C@H](CO)[C@@H](O)[C@H](O)[C@H]4O)cccc31)c1cccc(O[C@@H]3O[C@H](CO)[C@@H](O)[C@H](O)[C@H]3O)c1C2=O [Sennoside A]: 111.1
- OC[C@H]1O[C@@H](Oc2ccc(O)cc2)[C@H](O)[C@@H](O)[C@@H]1O: 113.4
- O=c1[nH]c(=O)n([C@H]2C[C@H](O)[C@@H](CO)O2)cc1F: 109.2

I would be grateful if you could provide residual activity for each of the following entries.
1. Cc1c(NC(=O)c2cccnc2)c(=O)n(-c2ccccc2)n1C
2. CC[C@H](CC[C@@H](C)[C@H]1CC[C@H]2[C@@H]3CC=C4C[C@@H](OC(C)=O)CC[C@]4(C)[C@H]3CC[C@]12C)C(C)C [SITOSTERYL ACETATE]
3. C=CC1=C(C)/C(=C/c2[nH]c(Cc3[nH]c(/C=C4\NC(=O)C(C)=C4C=C)c(C)c3CCC(=O)O)c(CCC(=O)O)c2C)NC1=O
4. CN1CCC(=C2c3ccccc3CC(=O)c3sccc32)CC1.O=C(O)/C=C/C(=O)O [KETOTIFEN FUMARATE]
5. O=C(/C=C/c1ccc(O)c(O)c1)O[C@H](Cc1ccc(O)c(O)c1)C(=O)O
6. N[C@@H](C(=O)N[C@@H]1C(=O)N2C(C(=O)O)=C(Cl)CS[C@H]12)c1ccccc1 [CEFACLOR ANHYDROUS]
7. CN1Cc2c(N)cccc2C(c2ccccc2)C1.O=C(O)/C=C\C(=O)O (centres undefined) [NOMIFENSINE MALEATE]

120.6
83.78
32.05
89.36
102.5
114.4
79.07

I would be grateful if you could provide residual activity for each of the following entries.
1. CC(C)OC(=O)C(C)(C)Oc1ccc(C(=O)c2ccc(Cl)cc2)cc1 [FENOFIBRATE]
2. COc1ccc(C(=O)c2ccccc2)c(O)c1
3. CCNc1nc(Cl)nc(NCC)n1
4. C#C[C@]1(OC(C)=O)CC[C@H]2[C@@H]3CCC4=CC(=O)CC[C@@H]4[C@H]3CC[C@@]21C [NORETHINDRONE ACETATE]
5. O=C(O)CCNC(=O)c1ccccc1
6. O=c1ccc2ccc(O)cc2o1
7. COc1cccc(/C=C/C(=O)O)c1C(C)C

90.21
128.4
92.02
104.9
92.61
76.49
87.92

---

molecular target: Solute carrier organic anion transporter family member 1B3 (Homo sapiens, UniProt Q9NPD5); settings: chinese hamster, cho, 10 µM
Sequence (Q9NPD5 whole entry): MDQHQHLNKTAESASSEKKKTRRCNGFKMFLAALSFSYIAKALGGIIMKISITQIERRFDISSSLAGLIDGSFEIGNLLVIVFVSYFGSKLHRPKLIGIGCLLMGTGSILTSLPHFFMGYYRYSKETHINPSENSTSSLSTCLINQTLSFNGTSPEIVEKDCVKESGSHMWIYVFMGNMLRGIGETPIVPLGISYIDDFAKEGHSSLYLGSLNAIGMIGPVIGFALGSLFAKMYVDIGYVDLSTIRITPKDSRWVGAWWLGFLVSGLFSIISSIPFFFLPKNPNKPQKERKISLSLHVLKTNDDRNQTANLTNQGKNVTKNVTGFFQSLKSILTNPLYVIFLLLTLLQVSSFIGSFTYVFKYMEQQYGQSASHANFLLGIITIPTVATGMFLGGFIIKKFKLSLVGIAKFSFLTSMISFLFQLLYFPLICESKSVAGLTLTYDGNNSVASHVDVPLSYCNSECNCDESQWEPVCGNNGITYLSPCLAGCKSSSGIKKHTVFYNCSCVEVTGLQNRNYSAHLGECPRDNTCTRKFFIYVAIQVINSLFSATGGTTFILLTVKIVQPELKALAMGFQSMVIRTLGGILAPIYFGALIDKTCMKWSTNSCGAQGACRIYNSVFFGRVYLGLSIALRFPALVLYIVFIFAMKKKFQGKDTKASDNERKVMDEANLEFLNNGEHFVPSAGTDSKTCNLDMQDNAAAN
quantityName: residual activity (%)
Give bare numbers, in %.

The following compounds have reported results that may help.
* CC(C)C[C@H](NC(=O)[C@H](Cc1ccccc1)NC(=O)CNC(=O)CNC(=O)[C@@H](N)Cc1ccc(O)cc1)C(=O)O | 87.68
* C=C1C2CC[C@@]3(C)[C@H](c4ccoc4)OC(=O)C[C@]13O[C@H]1CC(=O)C(C)(C)[C@H](C(O)C(=O)OC)[C@@]21C (stereo partly specified) [6-HYDROXYANGOLENSIC ACID METHYL ESTER] | 61.1
* CO[C@@]1(NC(=O)C(C(=O)[O-])c2ccc(O)cc2)C(=O)N2C(C(=O)[O-])=C(CSc3nnnn3C)CO[C@@H]21.[Na+].[Na+] (stereo partly specified) [MOXALACTAM DISODIUM] | 92.91

I would be grateful if you could provide residual activity for each of the following entries.
1. CC(=O)NC1CCSC1=O (stereo unspecified)
2. COc1ccc(-c2oc3c(CC=C(C)C)c(O[C@@H]4O[C@H](CO)[C@@H](O)[C@H](O)[C@H]4O)cc(O)c3c(=O)c2O[C@@H]2O[C@@H](C)[C@H](O)[C@@H](O)[C@H]2O)cc1
3. O=c1c(-c2ccc(O)cc2)coc2cc(O)cc(O)c12

1: 92.74; 2: 126.8; 3: 39.06
